Biological target: NT^R504Q fragment of IP3R1 (Rattus norvegicus, UniProt P29994, DEL318-332/R504Q)
Sequence (P29994 1-589 isoform P29994-2 R489Q limits assumed): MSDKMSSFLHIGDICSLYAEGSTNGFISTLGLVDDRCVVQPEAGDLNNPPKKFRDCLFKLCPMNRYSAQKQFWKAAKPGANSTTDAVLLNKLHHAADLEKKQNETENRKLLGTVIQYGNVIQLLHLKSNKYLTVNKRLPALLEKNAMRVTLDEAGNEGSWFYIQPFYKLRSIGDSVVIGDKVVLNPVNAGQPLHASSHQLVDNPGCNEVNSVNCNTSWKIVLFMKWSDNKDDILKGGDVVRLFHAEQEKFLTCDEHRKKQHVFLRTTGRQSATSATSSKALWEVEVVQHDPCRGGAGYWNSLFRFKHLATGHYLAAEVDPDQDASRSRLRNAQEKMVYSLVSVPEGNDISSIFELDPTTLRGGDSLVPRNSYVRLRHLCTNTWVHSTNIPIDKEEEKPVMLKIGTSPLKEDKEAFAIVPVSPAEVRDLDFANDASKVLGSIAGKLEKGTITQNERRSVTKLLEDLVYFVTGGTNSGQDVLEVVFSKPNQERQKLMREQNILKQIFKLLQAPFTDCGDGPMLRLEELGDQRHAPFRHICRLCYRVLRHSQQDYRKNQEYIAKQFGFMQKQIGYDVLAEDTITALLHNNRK
Assay: Equilibrium-competition 3H-IP3 binding to NT^R504Q
Details: Kd, TEM
property: Kd (µM)
// note: answer is a bare numeric in µM

Quote Kd reported for `Nc1ncnc2c1ncn2[C@@H]1O[C@H](CO)[C@@H](O[C@H]2O[C@H](CO)[C@@H](OP(=O)(O)O)[C@H](OP(=O)(O)O)[C@H]2O)[C@H]1OP(=O)(O)O` please.
0.0165

* * *

Molecular target: NT^R568Q fragment of IP3R1 (Rattus norvegicus, UniProt P29994, DEL318-332/R568Q)
Sequence (P29994 1-589 isoform P29994-2 R553Q limits assumed): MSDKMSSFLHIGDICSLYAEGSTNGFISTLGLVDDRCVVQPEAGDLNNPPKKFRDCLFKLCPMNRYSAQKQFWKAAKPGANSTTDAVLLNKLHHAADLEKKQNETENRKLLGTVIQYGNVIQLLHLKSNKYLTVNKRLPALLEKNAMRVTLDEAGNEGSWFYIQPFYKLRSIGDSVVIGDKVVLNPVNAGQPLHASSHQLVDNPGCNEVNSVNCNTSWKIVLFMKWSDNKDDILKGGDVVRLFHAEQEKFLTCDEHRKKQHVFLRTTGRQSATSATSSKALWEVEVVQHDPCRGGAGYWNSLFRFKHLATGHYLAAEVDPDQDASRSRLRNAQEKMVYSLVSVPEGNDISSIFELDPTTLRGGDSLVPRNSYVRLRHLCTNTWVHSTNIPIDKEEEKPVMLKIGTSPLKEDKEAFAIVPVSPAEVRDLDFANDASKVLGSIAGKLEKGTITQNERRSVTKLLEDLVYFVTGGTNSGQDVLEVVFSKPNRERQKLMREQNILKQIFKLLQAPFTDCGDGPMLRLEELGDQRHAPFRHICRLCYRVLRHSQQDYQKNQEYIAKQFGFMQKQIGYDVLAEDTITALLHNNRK
Assay: Equilibrium-competition 3H-IP3 binding to NT^R568Q
property: Kd (nM)
Give just the number in nM; leave the unit off.

Please report Kd for the following compound: `Nc1ncnc2c1ncn2[C@@H]1O[C@H](CO)[C@@H](O[C@H]2O[C@H](CO)[C@@H](OP(=O)(O)O)[C@H](OP(=O)(O)O)[C@H]2O)[C@H]1OP(=O)(O)O`
2.81

* * *

Target: NT (residues 1–604) of IP3R1 (Rattus norvegicus, UniProt P29994, DEL318-332)
Sequence (P29994 1-589 isoform P29994-2 limits assumed, stated change not applied): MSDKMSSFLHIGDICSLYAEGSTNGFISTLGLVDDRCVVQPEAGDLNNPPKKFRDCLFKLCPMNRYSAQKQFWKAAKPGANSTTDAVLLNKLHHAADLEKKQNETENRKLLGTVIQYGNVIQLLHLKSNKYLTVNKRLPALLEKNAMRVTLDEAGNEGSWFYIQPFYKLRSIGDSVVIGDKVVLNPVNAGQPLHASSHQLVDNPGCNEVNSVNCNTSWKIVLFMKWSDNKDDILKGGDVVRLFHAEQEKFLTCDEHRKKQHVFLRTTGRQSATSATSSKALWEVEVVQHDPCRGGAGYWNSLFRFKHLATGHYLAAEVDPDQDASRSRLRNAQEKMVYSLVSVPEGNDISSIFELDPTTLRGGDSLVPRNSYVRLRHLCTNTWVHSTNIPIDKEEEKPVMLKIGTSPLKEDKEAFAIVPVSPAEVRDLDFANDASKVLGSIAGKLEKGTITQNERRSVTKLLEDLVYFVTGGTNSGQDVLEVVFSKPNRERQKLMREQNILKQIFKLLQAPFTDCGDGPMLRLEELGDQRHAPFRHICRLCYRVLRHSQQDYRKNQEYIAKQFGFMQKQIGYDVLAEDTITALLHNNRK
Experiment: Equilibrium-competition 3H-IP3 binding to the NT fragment
Conditions: pKd ± SEM, TEM
property: Kd (nM)
Please respond with the number in nM and leave the unit unwritten.

Provide only the value of recorded Kd for `Nc1ncnc2c1ncn2[C@@H]1O[C@H](CO)[C@@H](O[C@H]2O[C@H](CO)[C@@H](OP(=O)(O)O)[C@H](OP(=O)(O)O)[C@H]2O)[C@H]1OP(=O)(O)O`
0.141
